test details: NCI Yeast Anticancer Drug Screen. Data for the mec2-1 strain (AID 157)
condition info: S. cerevisiae mec2-1 strain, at 33.0 µM, hits give high values
About 79,000 compounds went through this panel and 15% of them were active in at least one assay; those are over-represented in the sample as a whole.
parameter measured: growth inhibition (%)
Give bare numbers, in %.

Solved cases below.
# molecule, growth inhibition [%]
rows = [
    ("CCCS(=O)(=O)Nc1ccc(Nc2c3ccccc3nc3ccccc23)c(OC)c1", 33),
    ("N#CC(C(=O)Nc1ccccc1)C1=C(Cl)C(=O)c2ccccc2C1=O (centres undefined)", 97),
    ("Nc1nc(Cl)c(Cl)c(Cl)n1", 99),
]

Attention now shifts to the item below.
Problem: Given the molecule O=C1c2ccccc2C(=O)c2c(NC3CCCCC3)ccc(Nc3ccc(S(=O)(=O)O)cc3)c21 , what is its reported growth inhibition?
Result: 14

---

test details: NCI Yeast Anticancer Drug Screen. Data for the sgs1 mgt1 strain (AID 161);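 note: 0% = growth of cultures given vehicle only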
condition info: S. cerevisiae sgs1 mgt1 strain, at 50.0 µM (retest, dose inferred, filed as 5.0), hits give high values
The panel holds about 79,000 compounds, 15% with a hit somewhere; the sample as a whole holds those more often.
Kindly return Yes if reported growth inhibition is no lower than 50%; return No if it is lower.

Some solved cases for reference:
# compound, group label
data = [
    ("O=C(NCCCCNCCCNC(=O)c1cc(-c2ccccc2)nc2ccccc12)c1cc(-c2ccccc2)nc2ccccc12", "Yes"),
    ("OCC1OC(OCC(O)C(O)C(O)C(/C=N/Nc2ccccc2)=N/Nc2ccccc2)C(O)C(O)C1O (configuration not stated)", "No"),
    ("CC1=NN(c2cccc(Cl)c2)C(=O)C1", "Yes"),
]

Problem: Check this compound for growth inhibition at or above 50%: CC(C)/C(Cl)=N\OC(=O)Nc1cccc(Cl)c1
Result: Yes

Problem: Here is the next compound: C[CH2][Sn]([CH2]C)([O]C(=O)C(OC(C)=O)c1ccccc1)[O]C(=O)C(OC(C)=O)c1ccccc1 (configuration not stated)
Result: No

Problem: Same question for Cc1c(C2=C(Br)C(=O)N(C)C2=O)c(=O)n(C)c(=O)n1C please.
Result: No

---

test details: NCI Yeast Anticancer Drug Screen. Data for the bub3 strain (AID 167)
condition info: S. cerevisiae bub3 mutant strain, at 5.0 µM (retest, dose inferred, filed as 0.5)
The panel holds about 79,000 compounds, 15% with a hit somewhere; the sample as a whole holds those more often. The source made the active and inactive calls. No stated cut-off is given here; in the data, active means growth inhibition above about 70%; inactive means the rest.
Outcome field: choose from y (active), n (inactive)

Would you please look over these solved cases?
# compound, group label
data = [
    ("OC(c1ccc(F)cc1)(c1ccc(F)cc1)C1CC1", "n"),
    ("C=CCC1=C(C)C(OC(=O)/C=C/c2ccccc2)CC1=O (configuration not stated)", "n"),
    ("O=C(NCCCNCCCNC(=O)c1cc(-c2ccccc2)nc2ccccc12)c1cc(-c2ccccc2)nc2ccccc12", "n"),
    ("Cc1cc(N=Nc2ccc(S(=O)(=O)[O-])cc2)cc(C(=O)[O-])c1[O-].NC1CCCCC1N.[Na+].[Pt+4]", "n"),
    ("O=C([O][Sn]([O]C(=O)c1ccccc1)([c]1ccccc1)[c]1ccccc1)c1ccccc1", "n"),
]

Problem: Please share the test call associated with Cc1nc(-c2ccccc2)c(-c2ccccc2)s1 .
Result: n

Problem: Try the compound NC(N)=N/N=C\c1c2ccccc2cc2ccccc12
Result: n

Problem: Record: Nc1nc(Cl)c(Cl)c(Cl)n1
Result: n

Problem: Entry to check: S=C(Nc1ccc(Cl)c(Cl)c1)SCc1ccc2c(c1)OCO2
Result: y

Problem: Queued: COc1ccc2c(c1)C(=O)c1ccccc1C2
Result: n

Problem: Same question for CCC/C(Cl)=N\OC(=O)Nc1ccc(Br)cc1 please.
Result: n

Problem: // query: CCOC(=O)c1cnc2cc(C(F)(F)F)ccc2c1N=[N+]=[N-]
Result: n

Problem: Another compound: C/C(=N\O)C1CC2C=C(C#N)C1N(Cc1ccccc1)C2 (configuration not stated)
Result: n

---

test details: NCI Yeast Anticancer Drug Screen. Data for the mec2-1 strain (AID 157)
condition info: S. cerevisiae mec2-1 strain, at 50.0 µM (retest, dose inferred, filed as 5.0), hits give high values
Experimental: Growth inhibition of yeast strains with defined genetic alterations is measured as a screen for potential anti-cancer activity. Selected strains with alterations in DNA damage repair or cell cycle control were exposed to compounds and growth inhibition was measured relative to vehicle treated controls. The strain used in this assay is mec2-1
About 79,000 compounds went through this panel and 15% of them were active in at least one assay; those are over-represented in the sample as a whole.
parameter measured: growth inhibition (%)
One number for each entry, in %.

Dear colleague, could you please provide growth inhibition for the compounds listed below?
1. C/C(=N\O)C1CC2C=C(C#N)C1N(Cc1ccccc1)C2 (stereo unspecified)
2. O=C1C=CC(=O)N1c1ccc2c(c1)Cc1cc(NC(=O)C(F)(F)F)ccc1-2
3. C=C1CC(Cn2cc(Br)c(=O)[nH]c2=O)(c2ccc(-c3ccccc3)cc2)OC1=O (stereo unspecified)
4. O=Nc1cccnc1N=O
5. CO[C@H]1C[C@](C)(O)Cc2cc3c(c(O)c21)C(=O)c1c(O)cc2c(c1C3=O)O[C@@H]1O[C@@]2(C)[C@H](O)[C@@H](N(C)C)[C@@H]1O

Result:
1. -13
2. 94
3. 98
4. 99
5. -11

Problem: If you can, please state the reported growth inhibition value of CCCc1cc(C(=O)OCC)cc(CCC)c1O .
Result: 8

---

test details: NCI Yeast Anticancer Drug Screen. Data for the bub3 strain (AID 167)
condition info: S. cerevisiae bub3 mutant strain, at 11.0 µM
This is part of a sample that, as a whole, favours compounds with a hit. Of some 79,000 tested, about 15% had one in any assay. The source made the active and inactive calls. Rule as the data show it: active = growth inhibition above about 70%; inactive = the rest.
Choose one outcome from this list and give only that: label 1 = active, label 0 = inactive

Example results:
# compound, group label
records = [
    ("CC(=O)OC1CCC2(C)C(=CCC3C4CCC5(OC6CC(C)CN(C(C)=O)C6C5C)C(C)=C4C(=O)C32)C1 (configuration not stated)", "label 0"),
    ("c1ccc(-c2ccnc3c2ccc2c(-c4ccccc4)ccnc23)cc1", "label 0"),
    ("CCCCCCCCCCCCCCCCCCN(C)CC(COP(=O)([O-])OCC[N+](C)(C)C)OC (configuration not stated)", "label 1"),
    ("CC(=O)Nc1ccc2c(c1)C(=Nc1ccc(C(=O)O)cc1)c1ccccc1-2", "label 0"),
]

Problem: What was the test verdict on CC(C)/C(Cl)=N\OC(=O)Nc1ccc(F)cc1 ?
Result: label 0

Problem: Same lookup for CCNc1nnc(CSc2nc(-c3ccccc3)c(-c3ccccc3)[nH]2)s1 , please.
Result: label 0

---

test details: NCI Yeast Anticancer Drug Screen. Data for the rad52 strain (AID 147);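 note: 0% = growth of vehicle-treated control cultures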
condition info: S. cerevisiae rad52 mutant growth inhibition; at 100.0 µM
The panel holds about 79,000 compounds, 15% with a hit somewhere; the sample as a whole holds those more often. Activity calls are given as the source filed them. Rule as the data show it: active = growth inhibition above about 70%; inactive = the rest.
Answer with one of the outcomes given here: active, inactive

# compound, group label
data = [
    ("Cc1cc(CO)c(O)c(CNCc2cc(C)cc(CO)c2O)c1", "active"),
    ("CN(C)CCn1c2c3ccccc3ccc2c2oc(=O)c3ccccc3c21", "active"),
    ("COc1cc(C2c3cc4c(cc3OC(NNc3ccccc3)C2C)OCO4)cc(OC)c1OC (configuration not stated)", "active"),
    ("OC(c1ccc(F)cc1)(c1ccc(F)cc1)C1CC1", "active"),
    ("Cc1ccc(NN(NC(=O)OC(C)C)C(=O)OC(C)C)cc1", "inactive"),
    ("O=C(O)CNc1ccc(Cl)c(Cl)c1", "active"),
]

Problem: Outcome? COc1ccc(OC)c2cc3ccccc3cc12
Result: inactive

Problem: Can you handle NCCNc1ccc(NCCN)c2c1C(=O)c1c(O)ccc(O)c1C2=O next?
Result: inactive

Problem: Here is the next compound: CC(=O)SCCC[Si](C)(C)CCCSC(C)=O
Result: inactive

---

test details: NCI Yeast Anticancer Drug Screen. Data for the sgs1 strain (AID 173);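 note: 0% = growth of vehicle-only control cultures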
condition info: S. cerevisiae sgs1 mutant, at 100.0 µM
Description: Growth inhibition of yeast strains with defined genetic alterations is measured as a screen for potential anti-cancer activity. Selected strains with alterations in DNA damage repair or cell cycle control were exposed to compounds and growth inhibition was measured relative to vehicle treated controls. The strain used in this assay is sgs1
The panel holds about 79,000 compounds, 15% with a hit somewhere; the sample as a whole holds those more often. Activity calls are given as the source filed them. Rule as the data show it: active = growth inhibition above about 70%; inactive = the rest.
Outcomes you can answer with include only these: active, inactive

Reference set, count: 3
# compound, group label
rows = [
    ("O=CC=C(c1ccccc1)c1ccccc1", "active"),
    ("Cn1ccnc1Oc1ccc(Cl)cc1", "active"),
    ("CCOC(=O)C1=C(C(=O)c2ccccc2)C(c2ccccc2[N+](=O)[O-])C(C(=O)c2ccccc2)=C(C(=O)OCC)N1", "inactive"),
]

Problem: Can you look up the reported call for CN(Cc1cnc2nc(N)nc(N)c2n1)c1ccc(C(=O)N[C@@H](CCC(=O)O)C(=O)O)cc1 for me?
Result: inactive

Problem: Entry to check: CCC(C)COC(=O)c1ccc(N=Cc2ccc(C=Nc3ccc(C(=O)OCC(C)CC)cc3)cc2)cc1 (stereo unspecified)
Result: inactive

Problem: Same thing, different compound: N#CC(C(=O)Nc1ccccc1)C1=C(Cl)C(=O)c2ccccc2C1=O (stereo unspecified)
Result: active

Data credit: PubChem BioAssay (NCI)
